- assayedTarget: UniProt:P05067
- Sequence (P05067 672-713): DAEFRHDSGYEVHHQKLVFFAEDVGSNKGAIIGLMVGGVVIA
- experimentalDetails: Th-T (thioflavin-T) assay of Aβ42 aggregation
- Type: biochemical
- protocolConditions: column suffix _50; measurement M29
assayReadout: Th-T fluorescence, mean of three wells (Fig. 7a)
Answers are plain numbers.

Solved cases below.
INSERT INTO measurements (molecule, testresult) VALUES
  ('C=C1CCC2C(C)(CCC=C(C)C)C(O)CCC2(C)C1Cc1c(OC)oc(CO)c(C)c1=O (centres unmarked)', 1.606),
  ('C=C1CC[C@@H]2[C@](C)(CC[C@H]3O[C@H](C=C(C)C)C[C@@]23C)[C@@H]1Cc1c(OC)oc(CO)c(C)c1=O', 2.193),
  ('C=C1CCC2C(C)(CCC=C(C)C)C(O)CCC2(C)C1Cc1c(OC)oc(C)c(C(=O)OC)c1=O (centres unmarked)', 1.02),
  ('C=C1CCC2C(C)(CCC=C(C)C)C(O)CCC2(C)C1Cc1c(OC)oc(CO)c(C(=O)OC)c1=O (centres unmarked)', 0.3846);

// C=C1CC[C@@H]2[C@](C)(CC[C@H]3O[C@H](C=C(C)C)C[C@@]23C)[C@@H]1Cc1c(OC)oc(CO)c(C(=O)OC)c1=O : Th-T fluorescence, mean of three wells (Fig. 7a) value = 0.2091
